molecular target: peptide-binding domain of GRP78 (GRP78-PBD, amino acids 421-639) (UniProt P11021); assay: SPR (BIACORE T200), N-biotin peptide on streptavidin CM5 chip, GRP78-PBD analyte
Sequence (P11021 421-639 limits assumed, form in doubt): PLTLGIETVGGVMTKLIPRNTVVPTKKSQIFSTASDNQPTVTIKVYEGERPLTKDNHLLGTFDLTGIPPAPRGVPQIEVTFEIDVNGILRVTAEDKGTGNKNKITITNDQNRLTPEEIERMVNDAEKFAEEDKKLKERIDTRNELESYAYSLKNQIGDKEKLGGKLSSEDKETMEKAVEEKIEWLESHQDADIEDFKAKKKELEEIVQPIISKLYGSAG
pKd: −log10 of the molar value. Where no end group is shown, it is not given here. biotin = biotin label attached through an aminohexanoic acid linker; Ahx = NCCCCCC(=O)O
// not satisfied strictly below 6 in pKd; satisfied otherwise

Examples from the recorded data:
binder	class_name
{biotin-Ahx}-GGGGSRLLDTNRPFLFY [P13-CTP, N-terminally extended with GGGGS and N-terminally biotin-labeled]	not satisfied
{biotin-Ahx}-GGGGSRLLDTNRPFLPY [P6-CTP, N-terminally extended with GGGGS and N-terminally biotin-labeled]	not satisfied
{biotin-Ahx}-GGGGSRPFLFPFLFY [F4P13-TR-CTP, N-terminally extended with GGGGS and N-terminally biotin-labeled]	not satisfied

Please find the next binder below.
[ask] Is pKd at least 6? Consider {biotin-Ahx}-GGGGSRPFLFPFLFYRPFLFPFLFY [F5P13-TR-CTP, N-terminally extended with GGGGS and N-terminally biotin-labeled]
[reply] satisfied

The measured values listed here are drawn from patent US20210253636A1.
